Value source: ChEMBL document CHEMBL1126147

- Target entity: Aldo-keto reductase family 1 member B1 (Homo sapiens, UniProt P15121)
- Experimental protocol: In vitro inhibitory activity against aldose reductase isolated from human placenta
pIC50: −log10 of the molar value.
Quantity measured: pIC50

Example entries begin here.
O=C(O)Cc1nn(Cc2cc3ccccc3s2)c(=O)c2ccccc12
6.92
O=C(O)Cc1nn(Cc2cc3cc(F)ccc3s2)c(=O)c2ccccc12
6.82

[a] O=C(O)Cc1nn(CC(=O)Nc2ccc(Cl)cc2)c(=O)c2ccccc12
[b] O=C(O)Cc1nn(Cc2csc(-c3ccccc3)n2)c(=O)c2ccccc12
Of the two listed items, a and b , which carries the larger pIC50 figure? Field: selected label. Fill in the label of the entry you choose. a

[A] O=C(O)Cc1nn(CC(=O)Nc2cc(C(F)(F)F)cc(C(F)(F)F)c2)c(=O)c2ccccc12
[B] O=C(O)Cc1nn(CC(=O)Nc2ccccc2)c(=O)c2ccccc12
Short answer wanted: higher pIC50, A or B ? Kindly state the label of the option you pick. A
